- experimental details: Clearance in BALB-nu/nu mouse at 2.5 mg/kg, iv and 5 mg/kg, po by LC-MS/MS analysis
- Type: ADME, organism-based
- assay conditions: in vivo
Listing: clearance of selected compounds

CNS(=O)(=O)Nc1cccc(Cc2c(C)c3ccc(Oc4ncccn4)cc3oc2=O)c1F | 6.8 mL/min/kg

Lab book: clearance of CNS(=O)(=O)Nc1nccc(Cc2c(C)c3ccc(Oc4ncccn4)cc3oc2=O)c1F [AVUTOMETINIB] noted as 1.1 mL/min/kg

====

Listing: Papp of selected molecules
- experimental details: Membrane permeability of the compound at pH 6.5 by PAMPA PSR4p assay
- Type: physicochemical
- assay conditions: read-out: permeability
Field format: number, assumed ×10⁻⁶ cm/s, no unit text.

CNS(=O)(=O)Nc1cccc(Cc2c(C)c3ccc(OC(=O)N(C)C)nc3oc2=O)c1 | 3
CNS(=O)(=O)Nc1cc(Cc2c(C)c3ccc(OC(=O)N(C)C)cc3oc2=O)ccn1 | 7
CNS(=O)(=O)Nc1cccc(Cc2c(C)c3cc(C)c(OC(=O)N(C)C)cc3oc2=O)c1 | 4

Lab book: Papp of CNS(=O)(=O)Nc1cccc(Cc2c(C)c3ccc(OC(=O)N(C)C)cc3oc2=O)n1 noted as 6

====

- measured target: Cytochrome P450 2C9 (Homo sapiens)
- Sequence (P11712 whole entry): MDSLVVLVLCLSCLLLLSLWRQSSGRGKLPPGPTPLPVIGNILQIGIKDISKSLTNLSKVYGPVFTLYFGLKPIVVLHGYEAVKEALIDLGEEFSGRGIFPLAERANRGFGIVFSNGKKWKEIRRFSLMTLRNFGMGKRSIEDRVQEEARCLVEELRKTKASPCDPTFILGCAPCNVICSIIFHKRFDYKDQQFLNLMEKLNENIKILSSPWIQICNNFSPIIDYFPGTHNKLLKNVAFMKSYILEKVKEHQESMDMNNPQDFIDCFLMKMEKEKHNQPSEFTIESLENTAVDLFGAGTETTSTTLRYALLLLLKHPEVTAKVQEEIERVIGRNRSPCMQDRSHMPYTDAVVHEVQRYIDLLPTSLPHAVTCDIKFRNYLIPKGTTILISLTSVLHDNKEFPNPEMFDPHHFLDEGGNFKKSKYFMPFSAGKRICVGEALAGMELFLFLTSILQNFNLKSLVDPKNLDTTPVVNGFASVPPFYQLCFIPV
- experimental details: Inhibition of CYP2C9 in human liver microsomes using diclofenac as substrate measured after 30 mins preincubation by LC-MS/MS analysis in absence of NADPH
- Assay type: ADME
measurement kind: pIC50
Hey, just a heads up that pIC50 is the negative log base 10 of the concentration in molar.

Below: 2 compounds and their reported pIC50.
CNS(=O)(=O)Nc1cccc(Cc2c(C)c3ccc(Oc4ncccn4)cc3oc2=O)c1F | 4.72
CNS(=O)(=O)Nc1nccc(Cc2c(C)c3ccc(Oc4ncccn4)cc3oc2=O)c1F | 4.92

Let us move to another entry and its pIC50.
The reported pIC50 value, Cytochrome P450 2C9 (Homo sapiens), for CNS(=O)(=O)Nc1cccc(Cc2c(C)c3ccc(OC(=O)N(C)C)cc3oc2=O)c1 reads 4.54

====

- System: HT-29
- experimental details: Inhibition of human HT-29 cell growth
- Assay type: functional, cell-based
pIC50: −log10 of the molar value.
Please mark 1 if the recorded pIC50 is equal to or greater than 7, and -1 if it falls below.

Observe how each entry below is paired with its result.
CNS(=O)(=O)Nc1cccc(Cc2c(C)c3cc(C)c(OC(=O)N(C)C)cc3oc2=O)c1 | 1
CNS(=O)(=O)Nc1cc(Cc2c(C)c3ccc(OC(=O)N(C)C)cc3oc2=O)ccn1 | 1
CNS(=O)(=O)Nc1cccc(Cc2c(C)c3ccc(OC(=O)N(C)C)nc3oc2=O)c1 | -1

Lookup: Could you verify whether the entry CNS(=O)(=O)Nc1ccnc(Cc2c(C)c3cc(C)c(OC(=O)N(C)C)cc3oc2=O)c1 shows pIC50 of no less than 7?
Found: -1

Lookup: Could you verify whether the entry CNS(=O)(=O)Nc1cccc(Cc2c(C)c3ccc(OC(=O)N(C)C)cc3oc2=O)c1 shows pIC50 of no less than 7?
Found: 1

Lookup: Could you verify whether the entry CNS(=O)(=O)Nc1cncc(Cc2c(C)c3ccc(OC(=O)N(C)C)cc3oc2=O)c1 shows pIC50 of no less than 7?
Found: -1

====

- experimental details: AUC in BALB-nu/nu mouse at 100 mg/kg, po measured after 24 hrs by LC-MS/MS analysis
- Format: ADME, organism-based
- Parameters: time < 24 hr, dose 100 mg/kg, route oral
- assay conditions: plasma
measurement kind: AUC at 24 h (µM·h)
Field format: number, assumed µM·h, no unit text.

CNS(=O)(=O)Nc1cccc(Cc2c(C)c3ccc(OC(=O)N(C)C)cc3oc2=O)n1 | 314
CNS(=O)(=O)Nc1nccc(Cc2c(C)c3ccc(Oc4ncccn4)cc3oc2=O)c1F | 2830
CNS(=O)(=O)[N-]c1cccc(Cc2c(C)c3ccc(OC(=O)N(C)C)cc3oc2=O)c1.[Na+] | 78
CNS(=O)(=O)Nc1cccc(Cc2c(C)c3cc(C)c(OC(=O)N(C)C)cc3oc2=O)c1 | 18

Lab book: AUC at 24 h of CNS(=O)(=O)Nc1cccc(Cc2c(C)c3ccc(Oc4ncccn4)cc3oc2=O)c1F noted as 425

Lab book: AUC at 24 h of CNS(=O)(=O)Nc1cc(Cc2c(C)c3ccc(OC(=O)N(C)C)cc3oc2=O)ccn1 noted as 134

====

Listing: solubility of selected molecules
- experimental details: Solubility of the compound in fasted state simulated intestinal fluid by LYSA method
- Format: ADME
- assay conditions: fasted state simulated intestinal fluid (FaSSIF)
A complete answer gives the number and then names the unit.

CNS(=O)(=O)Nc1cncc(Cc2c(C)c3ccc(OC(=O)N(C)C)cc3oc2=O)c1 | 240 µg/mL
CNS(=O)(=O)Nc1cc(Cc2c(C)c3ccc(OC(=O)N(C)C)cc3oc2=O)ccn1 | 55 µg/mL

Let us move to another entry and its solubility.
Lab book: solubility of CNS(=O)(=O)Nc1nccc(Cc2c(C)c3ccc(Oc4ncccn4)cc3oc2=O)c1F [AVUTOMETINIB] noted as 159 µg/mL

====

Listing: clearance of selected compounds
- experimental details: Clearance in cynomolgus monkey at 2.5 mg/kg, iv and 5 mg/kg, po by LC-MS/MS analysis
- Format: ADME, organism-based, Macaca fascicularis
- assay conditions: in vivo
A complete answer gives the number and then names the unit.

CNS(=O)(=O)Nc1nccc(Cc2c(C)c3ccc(Oc4ncccn4)cc3oc2=O)c1F | 0.1 mL/min/kg

Let us move to another entry and its clearance.
Lab book: clearance of CNS(=O)(=O)Nc1cccc(Cc2c(C)c3ccc(Oc4ncccn4)cc3oc2=O)c1F noted as 0.9 mL/min/kg

====

- experimental details: Solubility of the compound in fasted state simulated intestinal fluid by LYSA method
- Format: ADME
- assay conditions: fasted state simulated intestinal fluid (FaSSIF)
Listing: solubility of selected compounds
Field format: number, assumed µg/mL, no unit text.

Below: 2 compounds and their reported solubility.
CNS(=O)(=O)Nc1ccnc(Cc2c(C)c3cc(C)c(OC(=O)N(C)C)cc3oc2=O)c1 | 425
CNS(=O)(=O)Nc1cccc(Cc2c(C)c3ccc(OC(=O)N(C)C)cc3oc2=O)n1 | 320

Let us move to another entry and its solubility.
Lab book: solubility of CNS(=O)(=O)Nc1cccc(Cc2c(C)c3ccc(OC(=O)N(C)C)nc3oc2=O)c1 noted as 43
